Cited source for all entries: PubChem BioAssay AID1963845

test system: 429239-143-T-J1-PDC complex spheroid viability; experiment: Anticancer human tumor 429239-143-T-J1-PDC patient-derived small cell lung carcinoma cell line growth inhibition [POLQ]; settings: second compound 0.0316 µM; first compound 0.316 µM; active means viability on the fitted dose curve at most 10% of control; inactive means the rest
Outcomes: Y for active, N for inactive

[
  {
    "compound": "COc1cccc2c1C(=O)c1c(O)c3c(c(O)c1C2=O)CC(O)(C(=O)CO)CC3OC1CC(N)C(O)C(C)O1 (stereo unspecified) + COC1C(OC(N)=O)C(O)C(Oc2ccc3c(O)c(NC(=O)c4ccc(O)c(CC=C(C)C)c4)c(=O)oc3c2C)OC1(C)C",
    "discrete-label": "Y"
  },
  {
    "compound": "COc1cccc(OCCCN)c1-c1cc(Nc2cnc(C#N)cn2)n[nH]1 + COC1C(OC(N)=O)C(O)C(Oc2ccc3c(O)c(NC(=O)c4ccc(O)c(CC=C(C)C)c4)c(=O)oc3c2C)OC1(C)C",
    "discrete-label": "N"
  },
  {
    "compound": "CCc1cc2c(N3CCc4c(cc(Cn5ccnc5)cc4-c4cn(C)nc4C(F)(F)F)C3=O)ccnc2c(OC)n1 + Cc1cccc(N(C)C(=O)C2C(O)CCN2c2nc(C)cc(C(F)(F)F)c2C#N)c1",
    "discrete-label": "N"
  },
  {
    "compound": "O=c1[nH]cc(F)c(=O)[nH]1 + COC1C(OC(N)=O)C(O)C(Oc2ccc3c(O)c(NC(=O)c4ccc(O)c(CC=C(C)C)c4)c(=O)oc3c2C)OC1(C)C",
    "discrete-label": "N"
  },
  {
    "compound": "O=c1[nH]cc(F)c(=O)[nH]1 + Cc1cccc(N(C)C(=O)C2C(O)CCN2c2nc(C)cc(C(F)(F)F)c2C#N)c1",
    "discrete-label": "N"
  },
  {
    "compound": "CCCS(=O)(=O)Nc1ccc(F)c(C(=O)c2c[nH]c3ncc(-c4ccc(Cl)cc4)cc23)c1F + Cc1cccc(N(C)C(=O)C2C(O)CCN2c2nc(C)cc(C(F)(F)F)c2C#N)c1",
    "discrete-label": "N"
  },
  {
    "compound": "C=CC(=O)N1CCN(c2nc(=O)n(-c3c(C)ccnc3C(C)C)c3nc(-c4c(O)cccc4F)c(F)cc23)C(C)C1 (stereo unspecified) + COC1C(OC(N)=O)C(O)C(Oc2ccc3c(O)c(NC(=O)c4ccc(O)c(CC=C(C)C)c4)c(=O)oc3c2C)OC1(C)C",
    "discrete-label": "N"
  },
  {
    "compound": "CNCc1ccc(-c2[nH]c3cc(F)cc4c3c2CCNC4=O)cc1 + Cc1cccc(N(C)C(=O)C2C(O)CCN2c2nc(C)cc(C(F)(F)F)c2C#N)c1",
    "discrete-label": "N"
  },
  {
    "compound": "CCc1cc2c(N3CCc4c(cc(Cn5ccnc5)cc4-c4cn(C)nc4C(F)(F)F)C3=O)cc(C)nc2c(OC)n1 + Cc1cccc(N(C)C(=O)C2C(O)CCN2c2nc(C)cc(C(F)(F)F)c2C#N)c1",
    "discrete-label": "N"
  },
  {
    "compound": "COc1ccc([C@@H](O)c2cc(-c3ncnc4cc(N5CCOCC5)ccc34)c(F)cc2Cl)nn1 + Nc1ccc(C#CCN(C(=O)Cc2ncc(C(F)(F)F)cc2C(F)(F)F)c2ccc(F)cc2)nn1",
    "discrete-label": "N"
  },
  {
    "compound": "CCc1cc2c(N3CCc4c(cc(Cn5ccnc5)cc4-c4cn(C)nc4C(F)(F)F)C3=O)ccnc2c(OC)n1 + COC1C(OC(N)=O)C(O)C(Oc2ccc3c(O)c(NC(=O)c4ccc(O)c(CC=C(C)C)c4)c(=O)oc3c2C)OC1(C)C",
    "discrete-label": "N"
  }
]

###

tested on: 429239-143-T-J1-PDC complex spheroid viability; assay: Anticancer human tumor 429239-143-T-J1-PDC cell line growth inhibition [POLQ]; conditions: second compound 1 µM; first compound 1 µM; active compounds read low;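 further: luminescence signal used as surrogate measure of viable cells; spheroids exposed to compounds for seven days before readout; 100% = DMSO vehicle control viability as luminescence relative to vehicle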

[
  {
    "molecule": "O=c1[nH]cc(F)c(=O)[nH]1 + Cc1cccc(N(C)C(=O)C2C(O)CCN2c2nc(C)cc(C(F)(F)F)c2C#N)c1",
    "viability, T/C, %": 87.8
  },
  {
    "molecule": "CCCS(=O)(=O)Nc1ccc(F)c(C(=O)c2c[nH]c3ncc(-c4ccc(Cl)cc4)cc23)c1F + Cc1cccc(N(C)C(=O)C2C(O)CCN2c2nc(C)cc(C(F)(F)F)c2C#N)c1",
    "viability, T/C, %": 91
  },
  {
    "molecule": "CCc1c2c(nc3ccc(O)cc13)-c1cc3c(c(=O)n1C2)COC(=O)[C@]3(O)CC + Nc1ccc(C#CCN(C(=O)Cc2ncc(C(F)(F)F)cc2C(F)(F)F)c2ccc(F)cc2)nn1",
    "viability, T/C, %": 1.52
  },
  {
    "molecule": "CC1COCCN1c1cc(-c2ccnn2C)c2ccnc(-c3ccn[nH]3)c2n1 (stereo not given) + Nc1ccc(C#CCN(C(=O)Cc2ncc(C(F)(F)F)cc2C(F)(F)F)c2ccc(F)cc2)nn1",
    "viability, T/C, %": 26.2
  },
  {
    "molecule": "CC1COCCN1c1cc(C2(S(C)(=N)=O)CC2)nc(-c2ccnc3[nH]ccc23)n1 (stereo not given) + Cc1cccc(N(C)C(=O)C2C(O)CCN2c2nc(C)cc(C(F)(F)F)c2C#N)c1",
    "viability, T/C, %": 75.7
  }
]

###

test system: 429239-143-T-J1-PDC complex spheroid viability; test: Anticancer human tumor 429239-143-T-J1-PDC cell line growth inhibition [POLQ]; conditions: second compound 10 µM; first compound 0.001 µM; active compounds read low;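 further: luminescence signal used as surrogate measure of viable cells; spheroids exposed to compounds for seven days before readout; 100% = DMSO vehicle control viability as luminescence relative to vehicle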
result-type: viability, T/C (%)

[
  {
    "molecule": "CC[C@@]1(O)C(=O)OCc2c1cc1n(c2=O)Cc2cc3c(CN(C)C)c(O)ccc3nc2-1 + Nc1ccc(C#CCN(C(=O)Cc2ncc(C(F)(F)F)cc2C(F)(F)F)c2ccc(F)cc2)nn1",
    "observed-result": 103
  },
  {
    "molecule": "Cn1ncnc1[C@H]1c2n[nH]c(=O)c3cc(F)cc(c23)N[C@@H]1c1ccc(F)cc1 + Nc1ccc(C#CCN(C(=O)Cc2ncc(C(F)(F)F)cc2C(F)(F)F)c2ccc(F)cc2)nn1",
    "observed-result": 91.7
  },
  {
    "molecule": "Cn1ncnc1[C@H]1c2n[nH]c(=O)c3cc(F)cc(c23)N[C@@H]1c1ccc(F)cc1 + COC1C(OC(N)=O)C(O)C(Oc2ccc3c(O)c(NC(=O)c4ccc(O)c(CC=C(C)C)c4)c(=O)oc3c2C)OC1(C)C",
    "observed-result": 90.9
  }
]

###

Measured viability, T/C values are reported for all entries that follow.
test system: 429239-143-T-J1-PDC complex spheroid viability; experiment: Anticancer human tumor 429239-143-T-J1-PDC cell line growth inhibition [POLQ]; conditions: second compound 0.316 µM; first compound 0.1 µM; active compounds read low;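 further: luminescence signal used as surrogate measure of viable cells; spheroids exposed to compounds for seven days before readout; 100% = DMSO vehicle control viability as luminescence relative to vehicle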

[
  {
    "compound": "COc1cc(C2c3cc4c(cc3C(OC3OC5COC(C)OC5C(O)C3O)C3COC(=O)C23)OCO4)cc(OC)c1O (stereo not given) + COC1C(OC(N)=O)C(O)C(Oc2ccc3c(O)c(NC(=O)c4ccc(O)c(CC=C(C)C)c4)c(=O)oc3c2C)OC1(C)C",
    "display-unit": "%",
    "viability, T/C": 85.3
  },
  {
    "compound": "O=C(c1cc(Cc2n[nH]c(=O)c3ccccc23)ccc1F)N1CCN(C(=O)C2CC2)CC1 + Nc1ccc(C#CCN(C(=O)Cc2ncc(C(F)(F)F)cc2C(F)(F)F)c2ccc(F)cc2)nn1",
    "display-unit": "%",
    "viability, T/C": 99.1
  },
  {
    "compound": "CC1COCCN1c1cc(-c2ccnn2C)c2ccnc(-c3ccn[nH]3)c2n1 (stereo not given) + Cc1cccc(N(C)C(=O)C2C(O)CCN2c2nc(C)cc(C(F)(F)F)c2C#N)c1",
    "display-unit": "%",
    "viability, T/C": 55.4
  },
  {
    "compound": "CCCS(=O)(=O)Nc1ccc(F)c(C(=O)c2c[nH]c3ncc(-c4ccc(Cl)cc4)cc23)c1F + Nc1ccc(C#CCN(C(=O)Cc2ncc(C(F)(F)F)cc2C(F)(F)F)c2ccc(F)cc2)nn1",
    "display-unit": "%",
    "viability, T/C": 108
  },
  {
    "compound": "O=C(Nc1ccc(O)c(NS(=O)(=O)c2ccc(F)cc2)c1)c1ccc(-c2ccccc2)cc1 + Nc1ccc(C#CCN(C(=O)Cc2ncc(C(F)(F)F)cc2C(F)(F)F)c2ccc(F)cc2)nn1",
    "display-unit": "%",
    "viability, T/C": 103
  }
]

###

Measured viability, T/C values are reported for all entries that follow.
tested on: 429239-143-T-J1-PDC complex spheroid viability; test: Anticancer human tumor 429239-143-T-J1-PDC cell line growth inhibition [POLQ]; conditions: second compound 0.316 µM; first compound 0.1 µM; active compounds read low;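 further: luminescence signal used as surrogate measure of viable cells; spheroids exposed to compounds for seven days before readout; 100% = DMSO vehicle control viability as luminescence relative to vehicle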
result-type: viability, T/C (%)

[
  {
    "compound": "O=c1[nH]cc(F)c(=O)[nH]1 + Nc1ccc(C#CCN(C(=O)Cc2ncc(C(F)(F)F)cc2C(F)(F)F)c2ccc(F)cc2)nn1",
    "result-type": "viability, T/C",
    "display-unit": "%",
    "observed-result": 110
  },
  {
    "compound": "Cn1ncnc1[C@H]1c2n[nH]c(=O)c3cc(F)cc(c23)N[C@@H]1c1ccc(F)cc1 + COC1C(OC(N)=O)C(O)C(Oc2ccc3c(O)c(NC(=O)c4ccc(O)c(CC=C(C)C)c4)c(=O)oc3c2C)OC1(C)C",
    "result-type": "viability, T/C",
    "display-unit": "%",
    "observed-result": 22.8
  },
  {
    "compound": "COc1cc(C2c3cc4c(cc3C(OC3OC5COC(C)OC5C(O)C3O)C3COC(=O)C23)OCO4)cc(OC)c1O (stereo not given) + Cc1cccc(N(C)C(=O)C2C(O)CCN2c2nc(C)cc(C(F)(F)F)c2C#N)c1",
    "result-type": "viability, T/C",
    "display-unit": "%",
    "observed-result": 90.1
  },
  {
    "compound": "CC1COCCN1c1cc(-c2ccnn2C)c2ccnc(-c3ccn[nH]3)c2n1 (stereo not given) + COC1C(OC(N)=O)C(O)C(Oc2ccc3c(O)c(NC(=O)c4ccc(O)c(CC=C(C)C)c4)c(=O)oc3c2C)OC1(C)C",
    "result-type": "viability, T/C",
    "display-unit": "%",
    "observed-result": 35.2
  },
  {
    "compound": "CC1COCCN1c1cc(C2(O)CC3CCC(C2)O3)c2cnn(-c3ccn[nH]3)c2n1 (stereo not given) + Nc1ccc(C#CCN(C(=O)Cc2ncc(C(F)(F)F)cc2C(F)(F)F)c2ccc(F)cc2)nn1",
    "result-type": "viability, T/C",
    "display-unit": "%",
    "observed-result": 71.3
  },
  {
    "compound": "C#Cc1c(F)ccc2cc(O)cc(-c3ncc4c(N5CC6CCC(C5)N6)nc(OCC56CCCN5CC(F)C6)nc4c3F)c12 (stereo not given) + Cc1cccc(N(C)C(=O)C2C(O)CCN2c2nc(C)cc(C(F)(F)F)c2C#N)c1",
    "result-type": "viability, T/C",
    "display-unit": "%",
    "observed-result": 100
  },
  {
    "compound": "COc1cccc2c1C(=O)c1c(O)c3c(c(O)c1C2=O)CC(O)(C(=O)CO)CC3OC1CC(N)C(O)C(C)O1 (stereo not given) + Nc1ccc(C#CCN(C(=O)Cc2ncc(C(F)(F)F)cc2C(F)(F)F)c2ccc(F)cc2)nn1",
    "result-type": "viability, T/C",
    "display-unit": "%",
    "observed-result": 53.6
  },
  {
    "compound": "CC1COCCN1c1cc(C2(S(C)(=N)=O)CC2)nc(-c2ccnc3[nH]ccc23)n1 (stereo not given) + Cc1cccc(N(C)C(=O)C2C(O)CCN2c2nc(C)cc(C(F)(F)F)c2C#N)c1",
    "result-type": "viability, T/C",
    "display-unit": "%",
    "observed-result": 99.6
  },
  {
    "compound": "COc1cccc2c1C(=O)c1c(O)c3c(c(O)c1C2=O)CC(O)(C(=O)CO)CC3OC1CC(N)C(O)C(C)O1 (stereo not given) + Cc1cccc(N(C)C(=O)C2C(O)CCN2c2nc(C)cc(C(F)(F)F)c2C#N)c1",
    "result-type": "viability, T/C",
    "display-unit": "%",
    "observed-result": 14.3
  },
  {
    "compound": "CC(C)n1c(=O)n(C)c2cnc3cc(F)c(-c4ccc(OCCCN5CCCCC5)nc4)cc3c21 + COC1C(OC(N)=O)C(O)C(Oc2ccc3c(O)c(NC(=O)c4ccc(O)c(CC=C(C)C)c4)c(=O)oc3c2C)OC1(C)C",
    "result-type": "viability, T/C",
    "display-unit": "%",
    "observed-result": 91
  }
]
